Molecular target: T1, human IL4 (human, UniProt P05112 25-153, biotinylated in the SPR and competition assays (sites not given))
T1 sequence: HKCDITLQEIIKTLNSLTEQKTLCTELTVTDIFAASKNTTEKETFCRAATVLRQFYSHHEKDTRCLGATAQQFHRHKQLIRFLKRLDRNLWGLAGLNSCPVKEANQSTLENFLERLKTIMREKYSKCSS
Assay: cell-based or functional assay
PARAMETER MEASURED: A549/TARC IL4 IC50 (pM)
Unit pM implied. Number only.

C06_44C12_V2_C01_6G9_V1 (designed binder, bispecific IL4/IL13 ankyrin repeat protein with (GGGGS)4 linker; also called bispecific AR protein) DLGKKLLEAASAGQDDEVHILMANGADVNALDDSGYTPLHLAAEDGHLEIVEVLLKHGADVNAADRLGDTPLHLAAFVGHLEIVEVLLKAGADVNAVDLAGVTPLHVAAFYGHLEIVEVLLKAGADVNAQDKFGKTAFDISIDNGNEDLAEILQKLNGGGGSGGGGSGGGGSGGGGSDLDKKLLEAARAGQDDEVRILMANGADVNARDSYGSTPLHLAAREGHLEIVEVLLKYGADVNAADFIGDTPLHLAAYRGHLEIVEVLLKYGADVNASDITGETPLHLAAQIGHLEIVEVLLKHGADVNAQDKFGKTAFDISIDNGNEDLAEILQKLN	16

Shifting focus to the binder that follows.
query: Which A549/TARC IL4 IC50 is reported for this binder? C01_6G9_V1_C06_44C12_V2 (designed binder, bispecific IL13/IL4 ankyrin repeat protein with (GGGGS)4 linker; also called bispecific AR protein) DLDKKLLEAARAGQDDEVRILMANGADVNARDSYGSTPLHLAAREGHLEIVEVLLKYGADVNAADFIGDTPLHLAAYRGHLEIVEVLLKYGADVNASDITGETPLHLAAQIGHLEIVEVLLKHGADVNAQDKFGKTAFDISIDNGNEDLAEILQKLNGGGGSGGGGSGGGGSGGGGSDLGKKLLEAASAGQDDEVHILMANGADVNALDDSGYTPLHLAAEDGHLEIVEVLLKHGADVNAADRLGDTPLHLAAFVGHLEIVEVLLKAGADVNAVDLAGVTPLHVAAFYGHLEIVEVLLKAGADVNAQDKFGKTAFDISIDNGNEDLAEILQKLN
result: 55

Ref: patent US20120277143A1
